Each recorded value in this set is attributed to ChEMBL document CHEMBL3868604.

# system: Heat shock protein HSP90 (Homo sapiens, UniProt P07900+P08238)
# method.summary: Binding affinity to N-terminal GST-tagged Hsp90 (unknown origin) expressed in Escherichia coli by ITC method
Recorded Kd, one value per entry.
Give the value, in units of µM, as a plain number.

Observe how each entry below is paired with its result.
[[record]]
substance = "Ac-KHFGMLRRWDD-NH2"
observed_result = 6.9

[[record]]
substance = "Ac-KHFGMLRR-NH2"
observed_result = 7.41

[[record]]
substance = "Ac-HFGMLRR-NH2"
observed_result = 5.99

[[record]]
substance = "Ac-KHFGMLRRW-NH2"
observed_result = 10.07


# evaluate next
Input: Given the substance `Ac-KHFGMLRRWD-NH2` , what is its reported Kd?
Output: 21
